Notes on IC50 obtained with Epidermal growth factor receptor (Homo sapiens).
Sequence (P00533 whole entry): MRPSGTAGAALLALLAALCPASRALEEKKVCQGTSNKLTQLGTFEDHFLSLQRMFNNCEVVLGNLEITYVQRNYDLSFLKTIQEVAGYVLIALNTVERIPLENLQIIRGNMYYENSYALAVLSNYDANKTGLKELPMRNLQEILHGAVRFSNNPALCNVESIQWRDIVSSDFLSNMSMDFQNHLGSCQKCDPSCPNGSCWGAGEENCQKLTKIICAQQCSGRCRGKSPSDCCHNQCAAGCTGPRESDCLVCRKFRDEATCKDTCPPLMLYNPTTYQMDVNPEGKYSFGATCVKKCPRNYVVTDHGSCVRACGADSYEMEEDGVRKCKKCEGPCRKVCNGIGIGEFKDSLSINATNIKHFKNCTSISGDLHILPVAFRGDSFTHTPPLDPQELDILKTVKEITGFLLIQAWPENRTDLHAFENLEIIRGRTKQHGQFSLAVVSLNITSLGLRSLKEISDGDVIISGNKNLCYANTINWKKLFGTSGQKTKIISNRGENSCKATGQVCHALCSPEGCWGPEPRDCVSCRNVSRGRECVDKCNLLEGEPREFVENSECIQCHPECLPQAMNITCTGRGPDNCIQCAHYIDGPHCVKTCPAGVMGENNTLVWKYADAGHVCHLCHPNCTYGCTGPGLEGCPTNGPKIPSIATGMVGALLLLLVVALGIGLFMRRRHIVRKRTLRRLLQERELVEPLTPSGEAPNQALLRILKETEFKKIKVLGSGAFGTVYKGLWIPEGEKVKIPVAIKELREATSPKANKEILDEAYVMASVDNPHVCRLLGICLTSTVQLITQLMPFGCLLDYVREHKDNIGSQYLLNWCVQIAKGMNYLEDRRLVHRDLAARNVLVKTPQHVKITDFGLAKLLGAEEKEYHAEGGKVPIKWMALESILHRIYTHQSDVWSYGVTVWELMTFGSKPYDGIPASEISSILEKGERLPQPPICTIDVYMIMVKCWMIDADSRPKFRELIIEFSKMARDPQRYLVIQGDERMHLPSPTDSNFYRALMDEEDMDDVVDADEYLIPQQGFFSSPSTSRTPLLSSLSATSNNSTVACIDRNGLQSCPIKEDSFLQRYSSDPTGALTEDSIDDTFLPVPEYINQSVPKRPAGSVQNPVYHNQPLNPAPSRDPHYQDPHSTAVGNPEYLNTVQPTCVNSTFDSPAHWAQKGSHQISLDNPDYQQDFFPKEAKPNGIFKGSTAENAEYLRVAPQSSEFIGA

Tell me the measured IC50 of "COc1cc2ncnc(Oc3ccc(NC(=O)Nc4ccc(C)cc4)cc3)c2cc1OC" , please. > 10 µM

# iterate: "COc1cc2ncnc(Nc3ccc(NC(=O)Nc4ccc(F)c(Cl)c4)cc3)c2cc1OC" > 10 µM

Same for "COc1ccc(NC(=O)Nc2ccc(Oc3ncnc4cc(OC)c(OC)cc34)cc2)cc1" > 10 µM

Now consider "COc1cc2ncnc(N(C)c3ccc(NC(=O)Nc4ccc(F)c(Cl)c4)cc3)c2cc1OC" . > 10 µM

Try "COc1cc2ncnc(Oc3ccc(Br)c(F)c3)c2cc1OC" next. 5.9 µM

---

Tested on: HT-29
Assay: Antiproliferative activity against human HT-29 cells at 10 uM after 72 hrs by MTS assay
Format: functional, cell-based
Conditions: HT-29, 72 h
quantity.name: IC50 (µM)

                                        smi  quantity_name  reported_result
0      COc1cc2ncnc(Oc3ccc(F)c(Cl)c3)c2cc1OC           IC50             4.07
1  COc1cc2ncnc(Nc3ccc(NC(=O)Nc4ccc(F)c(Cl)c4)cc3)c2cc1OC           IC50              6.2
2  COc1cc2/c(=N/c3ccc(Br)cc3F)nc[nH]c2cc1OCC1CCN(C)CC1           IC50              4.2
3   COc1cc2ncnc(N(C)c3ccc(F)c(Cl)c3)c2cc1OC           IC50              5.2
4      COc1cc2ncnc(Nc3ccc(F)c(Cl)c3)c2cc1OC           IC50              5.7

---

Target: Vascular endothelial growth factor receptor 2 (Homo sapiens)
Sequence (P35968 whole entry): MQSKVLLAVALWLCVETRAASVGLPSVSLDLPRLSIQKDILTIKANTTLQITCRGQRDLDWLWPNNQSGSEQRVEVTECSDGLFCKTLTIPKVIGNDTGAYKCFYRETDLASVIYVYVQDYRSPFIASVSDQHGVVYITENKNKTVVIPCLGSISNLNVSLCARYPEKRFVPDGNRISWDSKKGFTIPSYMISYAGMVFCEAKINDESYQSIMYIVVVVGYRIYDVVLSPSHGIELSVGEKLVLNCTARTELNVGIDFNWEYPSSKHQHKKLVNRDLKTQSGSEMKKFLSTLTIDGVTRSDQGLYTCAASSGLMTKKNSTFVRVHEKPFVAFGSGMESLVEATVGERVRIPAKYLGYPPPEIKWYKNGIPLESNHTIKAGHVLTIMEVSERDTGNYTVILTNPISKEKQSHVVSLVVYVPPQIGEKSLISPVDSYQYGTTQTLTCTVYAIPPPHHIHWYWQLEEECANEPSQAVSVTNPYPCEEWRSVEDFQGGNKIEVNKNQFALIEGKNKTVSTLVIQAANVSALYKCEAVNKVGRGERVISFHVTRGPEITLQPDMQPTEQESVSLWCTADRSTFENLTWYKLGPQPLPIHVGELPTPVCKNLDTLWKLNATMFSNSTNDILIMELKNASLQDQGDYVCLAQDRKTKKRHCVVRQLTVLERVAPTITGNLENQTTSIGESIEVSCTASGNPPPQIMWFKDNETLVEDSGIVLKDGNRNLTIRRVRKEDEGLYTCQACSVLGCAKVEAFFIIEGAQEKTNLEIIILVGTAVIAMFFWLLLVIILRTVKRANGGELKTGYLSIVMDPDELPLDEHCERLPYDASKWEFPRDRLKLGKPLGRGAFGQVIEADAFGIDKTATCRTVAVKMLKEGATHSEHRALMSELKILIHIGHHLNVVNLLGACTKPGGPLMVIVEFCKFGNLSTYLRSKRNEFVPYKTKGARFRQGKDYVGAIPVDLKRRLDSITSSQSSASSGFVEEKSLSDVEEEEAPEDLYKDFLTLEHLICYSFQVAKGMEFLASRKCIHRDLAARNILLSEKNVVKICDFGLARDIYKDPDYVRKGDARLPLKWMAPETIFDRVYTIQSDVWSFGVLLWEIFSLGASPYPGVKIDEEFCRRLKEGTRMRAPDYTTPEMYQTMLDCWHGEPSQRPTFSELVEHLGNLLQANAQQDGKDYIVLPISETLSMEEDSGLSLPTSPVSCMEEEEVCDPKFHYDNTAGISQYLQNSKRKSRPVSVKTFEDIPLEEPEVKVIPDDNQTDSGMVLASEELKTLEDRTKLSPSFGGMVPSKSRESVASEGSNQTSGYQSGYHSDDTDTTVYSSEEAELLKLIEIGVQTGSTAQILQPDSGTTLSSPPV
Assay: Inhibition of recombinant human VEGFR-2-mediated poly(Glu4Tyr) phosphorylation after 1 hr
pIC50: −log10 of the molar value.
quantity.name: pIC50

Example entries begin here.
In [3]: df
Out[3]:
                                        smi                       experimental_system  reported_result
0      COc1cc2ncnc(Nc3ccc(F)c(Cl)c3)c2cc1OC  Vascular endothelial growth factor receptor 2 (Homo sapiens)             5.28
1  COc1cc2ncnc(Nc3ccc(NC(=O)Nc4ccc(F)c(Cl)c4)cc3)c2cc1OC  Vascular endothelial growth factor receptor 2 (Homo sapiens)             5.37
2  COc1cc2ncnc(Oc3ccc(NC(=O)Nc4ccccc4)cc3)c2cc1OC  Vascular endothelial growth factor receptor 2 (Homo sapiens)             7.22
3  COC(=O)Nc1ccc(Nc2ncnc3cc(OC)c(OC)cc23)cc1  Vascular endothelial growth factor receptor 2 (Homo sapiens)             5.24
4        COc1cc2ncnc(Nc3ccc(Br)cc3F)c2cc1OC  Vascular endothelial growth factor receptor 2 (Homo sapiens)             5.78
5      COc1cc2ncnc(Oc3ccc(F)c(Cl)c3)c2cc1OC  Vascular endothelial growth factor receptor 2 (Homo sapiens)             5.02

1 = CCOC(=O)Nc1ccc(Nc2ncnc3cc(OC)c(OC)cc23)cc1
2 = COc1ccc(NC(=O)Nc2ccc(Oc3ncnc4cc(OC)c(OC)cc34)cc2)cc1
Which gives the smaller pIC50 number: 1 or 2 ? In your reply, give the label of the chosen option. 1
(1: 5.25, 2: 7.15)
